Biological target: Aro3 (Saccharomyces cerevisiae)
Construct: full-length ORF in pET21, C-terminal His6 tag, expressed in E. coli Rosetta 2 (DE3); Ni-NTA and gel filtration; dimer in crystal
Experiment: isothermal titration calorimetry
Measurement name: pKd
On this scale, pKd is minus log10 of a concentration expressed in M (mol/L).

What pKd appears in the records for this compound with Aro3 (Saccharomyces cerevisiae)? `N[C@@H](Cc1ccccc1)C(=O)O`
4.50

---

Target: Aro3 (Saccharomyces cerevisiae, UniProt P14843, D154N)
Construct: full-length ORF in pET21, C-terminal His6 tag, expressed in E. coli Rosetta 2 (DE3); Ni-NTA and gel filtration; dimer in crystal
Sequence (P14843 whole entry D154N): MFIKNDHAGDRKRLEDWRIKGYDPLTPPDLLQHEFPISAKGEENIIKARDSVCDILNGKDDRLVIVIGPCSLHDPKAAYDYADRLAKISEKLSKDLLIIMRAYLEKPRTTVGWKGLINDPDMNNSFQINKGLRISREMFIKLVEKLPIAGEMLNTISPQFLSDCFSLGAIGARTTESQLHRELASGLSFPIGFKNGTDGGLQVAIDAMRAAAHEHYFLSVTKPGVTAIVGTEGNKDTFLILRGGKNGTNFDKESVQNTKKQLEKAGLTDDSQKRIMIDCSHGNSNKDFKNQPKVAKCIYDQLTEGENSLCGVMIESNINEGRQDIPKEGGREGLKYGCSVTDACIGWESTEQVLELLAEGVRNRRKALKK
Test: isothermal titration calorimetry
Measurement name: pKd
On this scale, pKd is minus log10 of a concentration expressed in M (mol/L).

Returns the measured pKd for the input compound. Input: `N[C@@H](Cc1ccccc1)C(=O)O`
3.47

Data origin: paper PMC10349828
